Target Or Test System: monkey CD19-his protein (monkey)
Test Description: ELISA, monkey CD19 coated
Protocol: After incubation for 2 h at 37° C., the plate was washed 3 times with PBS. […] After incubation for 1 h at 37° C., the plate was washed 5 times with PBS. A TMB substrate was added at 50 μL/well. After incubation at room temperature for 10 min, a stop solution (1.0 N HCl) was added at 50 μL/well. The OD450 nm values were read on an ELISA microplate reader (Multimode Plate Reader, EnSight, purchased from Perkin Elmer). […]
Assay Endpoint: OD450 at 10.00 nM (OD450)
Supply the numeric figure in OD450, leaving out any unit text.

Observe how each entry below is paired with its result.
Form: binder = FMC63.26-mIgG1 (antibody, V domains shown, Humanized FMC63; also called FMC63-L2H6) VH: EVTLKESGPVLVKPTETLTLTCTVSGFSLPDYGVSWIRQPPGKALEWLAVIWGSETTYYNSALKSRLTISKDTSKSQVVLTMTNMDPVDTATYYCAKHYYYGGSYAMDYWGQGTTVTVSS VL: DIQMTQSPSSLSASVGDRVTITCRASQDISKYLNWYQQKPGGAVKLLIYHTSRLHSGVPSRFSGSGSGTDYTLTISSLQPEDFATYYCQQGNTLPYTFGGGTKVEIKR ; OD450 at 10.00 nM = 0.06

Form: binder = FMC63-mIgG1 (antibody, V domains shown, Parent murine antibody; also called murine antibody FMC63) VH: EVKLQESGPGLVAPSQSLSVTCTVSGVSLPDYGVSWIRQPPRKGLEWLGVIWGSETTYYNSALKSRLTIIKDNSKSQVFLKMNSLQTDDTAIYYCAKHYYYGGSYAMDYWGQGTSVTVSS VL: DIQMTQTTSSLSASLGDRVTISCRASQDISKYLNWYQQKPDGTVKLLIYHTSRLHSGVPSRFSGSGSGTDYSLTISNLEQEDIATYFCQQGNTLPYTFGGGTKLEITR ; OD450 at 10.00 nM = 0.05

Form: binder = FMC63.25-mIgG1 (antibody, V domains shown, Humanized FMC63; also called FMC63-L2H5) VH: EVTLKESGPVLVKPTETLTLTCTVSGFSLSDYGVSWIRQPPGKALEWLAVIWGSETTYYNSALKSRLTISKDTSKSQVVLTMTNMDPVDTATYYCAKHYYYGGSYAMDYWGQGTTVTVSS VL: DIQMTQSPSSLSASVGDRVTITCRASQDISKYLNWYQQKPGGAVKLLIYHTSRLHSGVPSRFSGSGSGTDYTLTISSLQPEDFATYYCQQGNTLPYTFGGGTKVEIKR ; OD450 at 10.00 nM = 0.1

Please find the next binder below.
Form: binder = FMC63.27-mIgG1 (antibody, V domains shown, Humanized FMC63; also called FMC63-L2H7) VH: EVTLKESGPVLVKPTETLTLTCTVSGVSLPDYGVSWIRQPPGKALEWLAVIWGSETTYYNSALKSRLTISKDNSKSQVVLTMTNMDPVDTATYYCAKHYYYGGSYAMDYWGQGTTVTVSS VL: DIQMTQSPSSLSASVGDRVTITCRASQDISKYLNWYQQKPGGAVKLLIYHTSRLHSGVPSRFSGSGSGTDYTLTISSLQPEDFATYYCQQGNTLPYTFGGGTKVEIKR ; OD450 at 10.00 nM = 0.05

Data origin, for the record: patent US20230406922A1
